# TARGET ENTITY: cynomolgus complement C3b protein (cynomolgus monkey (Macaca fascicularis))
# METHOD DESCRIPTION: cell-based or functional assay
MEASUREMENT KIND: C3b Dep (nM), cyno serum, IC50
Value expressed in nM; do not type the unit.

Recorded results for 2 binders are shown here.
BINDER	C3b Dep (nM), cyno serum, IC50
MOR09423 Fab (Fab, V domains shown, also called Fab 9423) VH: QVQLVQSGAEVKKPGASVKVSCKASGYTFTGYYINWVRQAPGQGLEWMGIISPNQGTTGYAQKFQGRVTMTRDTSISTAYMELSSLRSEDTAVYYCARGNYDHLDYWGQGTLVTVSS VL: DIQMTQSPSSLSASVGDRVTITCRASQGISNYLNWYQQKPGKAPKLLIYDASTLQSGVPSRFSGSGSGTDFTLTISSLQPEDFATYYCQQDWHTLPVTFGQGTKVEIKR	66
MOR09373 Fab (Fab, V domains shown, also called Fab 9373) VH: QVQLVQSGAEVKKPGASVKVSCKASGYTFTSYSMHWVRQAPGQGLEWMGLINPYNGNTHYAQKFQGRVTMTRDTSISTAYMELSSLRSEDTAVYYCARMLRFDVWGQGTLVTVSS VL: DIALTQPASVSGSPGQSITISCTGTSSDGGGYNYVSWYQQHPGKAPKLMIYGVSNRPSGVSNRFSGSKSGNTASLTISGLQAEDEADYYCQTYTRYSDSPVFGGGTKLTVLG	5

Now look at this one.
INPUT: Supply recorded C3b Dep (nM), cyno serum, IC50 for MOR09397 Fab (Fab, V domains shown, also called Fab 9397) VH: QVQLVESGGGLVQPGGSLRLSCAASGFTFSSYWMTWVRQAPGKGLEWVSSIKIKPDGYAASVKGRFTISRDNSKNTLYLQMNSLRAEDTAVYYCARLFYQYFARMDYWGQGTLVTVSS VL: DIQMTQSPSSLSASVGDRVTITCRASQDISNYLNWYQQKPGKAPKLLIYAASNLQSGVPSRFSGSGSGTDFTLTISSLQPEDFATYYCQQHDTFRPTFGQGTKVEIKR here.
OUTPUT: 35
